Each recorded value in this set is attributed to patent US10940139B2.

Target: UniProt P61586
Experiment: Rho inhibition assay (labeled GTP)
Assay type: binding
Conditions: read-out: Rho-A % Inh.
property: inhibition at 20 µM

// known answers, use as guide
Form field: reported inhibition at 20 µM of CCC(C)c1csc2c(OC)nc(-c3ccccn3)nc12 (stereo not drawn) [drawing 3790]
51 to 75%

Form field: reported inhibition at 20 µM of CC(C)Oc1ccc(-c2c(-c3ccccc3)sc3c(O)nc(-c4nccn4C)nc23)cc1F [drawing 3929]
25 to 50%

Form field: reported inhibition at 20 µM of Cc1sc2c(O)nc(-c3ccccn3)nc2c1C(=O)O [drawing 3801]
25 to 50%

Form field: reported inhibition at 20 µM of CC(C(=O)Nc1ccnc(-c2ccccn2)n1)c1ccc(C#N)cc1 (stereo not drawn) [drawing 3683]
51 to 75%

Form field: reported inhibition at 20 µM of COc1ccnc(-c2nc(O)c3ccsc3n2)c1 [drawing 3627]
51 to 75%

With those in mind, consider the next molecule.
Form field: reported inhibition at 20 µM of COc1cc(N2CCN(C(=O)c3csc4c(O)nc(-c5ccccn5)nc34)CC2)cc(OC)c1OC [drawing 3647]
25 to 50%

---

Biological target: KRas G12D/Q61H double mutant (Homo sapiens (Human), UniProt P01116, G12D/Q61H)
Sequence (P01116-2 other isoform, or with tags, fused parts or gaps G12D/Q61H): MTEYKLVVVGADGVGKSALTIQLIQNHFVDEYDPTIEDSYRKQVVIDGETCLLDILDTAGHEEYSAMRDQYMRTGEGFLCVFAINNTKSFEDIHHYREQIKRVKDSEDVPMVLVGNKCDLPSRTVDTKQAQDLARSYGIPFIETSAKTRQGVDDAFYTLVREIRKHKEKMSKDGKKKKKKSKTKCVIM
Test: Ras GTP binding domain inhibition assay (labeled GTP)
Conditions: at 20 μM; read-out: KRas G12D Q61H % Inh.
property: inhibition at 20 µM

// known answers, use as guide
Form field: reported inhibition at 20 µM of Cc1sc2c(N)nc(-c3ccccn3)nc2c1-c1ccccc1 [drawing 3709]
25 to 50%

Form field: reported inhibition at 20 µM of COCCNc1nc(-c2ccccn2)nc(-c2cccc(OCCN(C)C)c2)c1Oc1ccccc1 [drawing 3847]
1 to 25%

Form field: reported inhibition at 20 µM of COC(=O)c1nc(-c2ccccn2)nc(O)c1O [drawing 3865]
51 to 75%

Form field: reported inhibition at 20 µM of N#Cc1cccc(CCNC(=O)c2csc3nc(-c4ccccn4)nc(N4CCOCC4)c23)c1 [drawing 3676]
1 to 25%

Form field: reported inhibition at 20 µM of Cn1cnc(-c2nc(O)c3c(-c4ccccc4)c(-c4ccncc4)sc3n2)c1 [drawing 3846]
1 to 25%

Form field: reported inhibition at 20 µM of Oc1nc(-c2ccccn2)nc2c(-c3ccc(OC(F)F)cc3F)csc12 [drawing 3748]
51 to 75%

---
Form field: reported inhibition at 20 µM of Cc1sc2c(O)nc(-c3ccccn3)nc2c1C(=O)N1CCN(c2ccccc2)CC1C (stereo not drawn) [drawing 3828]
51 to 75%

Form field: reported inhibition at 20 µM of Cc1cnc(-c2ccccn2)nc1NC(=O)C1CCCc2cc(C#N)ccc21 (stereo not drawn) [drawing 3699]
51 to 75%

Form field: reported inhibition at 20 µM of COc1ccc(COC[C@H]2OC(c3csc4c(=O)[nH]c(-c5ccccn5)nc34)[C@H](O)[C@@H]2O)cc1 (stereo partly drawn)
25 to 50%

---

Target: Rho-A (Homo sapiens (Human))
Sequence (P61586 whole entry): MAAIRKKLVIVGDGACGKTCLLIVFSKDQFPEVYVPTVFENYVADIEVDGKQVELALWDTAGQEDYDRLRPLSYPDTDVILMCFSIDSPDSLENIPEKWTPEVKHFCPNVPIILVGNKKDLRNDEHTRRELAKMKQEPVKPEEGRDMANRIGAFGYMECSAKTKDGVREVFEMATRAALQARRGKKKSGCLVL
Experiment: Rho inhibition assay (labeled GTP)
Assay type: binding
Conditions: read-out: Rho-A % Inh.
# inhibition at 20 µM per entry

// known answers, use as guide
Value wanted: inhibition at 20 µM (Rho-A (Homo sapiens (Human))) of entry COCCCCNC(=O)c1csc2nc(-c3ccccn3)nc(N(CCOC)CCOC)c12 [drawing 3682]
51 to 75%

Value wanted: inhibition at 20 µM (Rho-A (Homo sapiens (Human))) of entry CC(C)COc1ccc(-c2c(-c3ccccc3)sc3c(O)nc(-c4nccn4C)nc23)cn1 [drawing 3905]
51 to 75%

Value wanted: inhibition at 20 µM (Rho-A (Homo sapiens (Human))) of entry Oc1nc(-c2ccccn2)nc2c(-c3ccc(OC4CCCCC4)cc3)csc12 [drawing 3759]
51 to 75%

---
Value wanted: inhibition at 20 µM (Rho-A (Homo sapiens (Human))) of entry COc1nc(-c2ccccn2)nc2c1c(-c1ccccc1)nn2-c1ccccn1 [drawing 3858]
76 to 100%

Value wanted: inhibition at 20 µM (Rho-A (Homo sapiens (Human))) of entry O=C(c1csc2c(O)nc(-c3ccccn3)nc12)N1CCN(c2ccc(F)cc2F)CC1 [drawing 3649]
51 to 75%

Value wanted: inhibition at 20 µM (Rho-A (Homo sapiens (Human))) of entry Oc1nc(-c2ccccn2)nc2c(CC3CCNC3)csc12 (stereo not drawn) [drawing 3844]
76 to 100%

Value wanted: inhibition at 20 µM (Rho-A (Homo sapiens (Human))) of entry Cc1cncc(-c2csc3c(O)nc(-c4ccccn4)nc23)c1 [drawing 3785]
25 to 50%

Value wanted: inhibition at 20 µM (Rho-A (Homo sapiens (Human))) of entry N#Cc1ccc(N2CCN(C(=O)c3csc4c(O)nc(-c5ccccn5)nc34)CC2)cc1 [drawing 3645]
51 to 75%

---

Target: KRas wild type (Homo sapiens (Human), UniProt P01116)
Sequence (P01116-2 other isoform, or with tags, fused parts or gaps): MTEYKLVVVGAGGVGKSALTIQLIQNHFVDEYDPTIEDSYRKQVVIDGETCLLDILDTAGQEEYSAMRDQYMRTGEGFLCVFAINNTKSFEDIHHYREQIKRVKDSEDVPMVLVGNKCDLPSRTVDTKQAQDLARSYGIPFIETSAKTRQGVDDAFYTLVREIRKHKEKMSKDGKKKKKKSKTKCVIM
Experiment: Ras GTP binding domain inhibition assay (labeled GTP)
Settings: 20 μM compound; read-out: % Inhibition at 20 μM KRas wild type
# inhibition at 20 µM per entry

// known answers, use as guide
Form field: reported inhibition at 20 µM of O=C(c1csc2c(O)nc(-c3ccccn3)nc12)N1CCOC(c2ccccc2Cl)C1 (stereo not drawn) [drawing 2769]
51 to 75%

Form field: reported inhibition at 20 µM of Cc1cc2nc(-c3ccccn3)nc(N)c2s1 [drawing 2836]
25 to 50%

Form field: reported inhibition at 20 µM of COc1cccc(CN2CCN(C(=O)c3csc4c(O)nc(-c5ccccn5)nc34)CC2)c1 [drawing 2763]
25 to 50%

---
Form field: reported inhibition at 20 µM of O=C(c1csc2c(O)nc(-c3ccccn3)nc12)N1CCC(c2cccc(O)c2)C1 (stereo not drawn) [drawing 2840]
51 to 75%

Form field: reported inhibition at 20 µM of O=C(c1csc2c(O)nc(-c3ccccn3)nc12)N1CCN(c2ccncc2)CC1 [drawing 2681]
51 to 75%

Form field: reported inhibition at 20 µM of Oc1nc(-c2ccccn2)nc2c(Br)csc12 [drawing 2673]
25 to 50%

Form field: reported inhibition at 20 µM of CNC(=O)c1ccc(-c2csc3c(O)nc(-c4ccccn4)nc23)cc1C [drawing 2885]
25 to 50%

Form field: reported inhibition at 20 µM of NC(=O)Cn1cnc2nc(-c3ccccn3)nc(N3CCOCC3)c21 [drawing 2825]
25 to 50%

Form field: reported inhibition at 20 µM of O=C(c1ccc(=O)[nH]n1)N1CCCc2c(O)nc(-c3ccccn3)nc21 [drawing 2646]
51 to 75%

---

# inhibition at 20 µM per entry
Molecular target: KRas wild type (Homo sapiens (Human), UniProt P01116)
Test: Ras GTP binding domain inhibition assay (labeled GTP)
Conditions: 20 μM; read-out: KRas wild type, % Inh.
Protocol: Buffer-I: • 50 mM Tris, pH 7.5 • 150 mM NaCl (optional) • 1 mM MgCl2 • 1 mM DTT. • KRas G12D mutant protein was expressed as a His-tagged protein. […] Then 22 μl of Cy3-GTP or Cy5-GTP was added to each well. The labeled GTP was incubated for 45 min. at room temperature. • Following GTP incubation, wells were washed 3× in Buffer-I, and 200 μl of Buffer-I were added to each well. • Following washes, the amount of bound labeled-GTP was measured with an Eppendorf AF2200 plate reader. […]

// known answers, use as guide
Form field: reported inhibition at 20 µM of COc1ccc(C(=O)Nc2nc(-c3ccccn3)cs2)cn1 [drawing 2581]
51 to 75%

Form field: reported inhibition at 20 µM of NC(=O)C1(CNc2nc(-c3ccccn3)nc3c2CCC3)CCCC1 [drawing 2608]
25 to 50%

Form field: reported inhibition at 20 µM of CN(Cc1nnc(-c2ccccc2Cl)o1)Cc1ccccc1C(F)(F)F [drawing 2482]
1 to 25%

Form field: reported inhibition at 20 µM of COc1cccc(C(=O)Nc2nc(-c3ccccn3)cs2)c1 [drawing 2580]
25 to 50%

Form field: reported inhibition at 20 µM of O=C(Nc1nc(-c2ccccn2)cs1)c1cccc(F)c1 [drawing 2567]
51 to 75%

---
Form field: reported inhibition at 20 µM of COC(=O)c1cc(NCc2nc(CC(C)C)no2)ccc1Cl [drawing 2612]
1 to 25%

---

Target: KRas G12D/Q61H double mutant (Homo sapiens (Human), UniProt P01116, G12D/Q61H)
Experiment: Ras GTP binding domain inhibition assay (labeled GTP)
Settings: 20 μM compound; KRas G12D/Q61H double mutant; read-out: % Inhibition at 20 μM of K-Ras mutant and wild-type protein, KRas G12D Q61H
property: inhibition at 20 µM

// known answers, use as guide
Form field: reported inhibition at 20 µM of CC(COc1ccc(Oc2ccccc2)cc1)Oc1ccc(C(F)(F)F)cn1 (centres unmarked)
51 to 75%

Form field: reported inhibition at 20 µM of COCCN(Cc1ccccc1)CC(O)COC(c1ccc(OC)cc1)c1ccc(OC)cc1 (centres unmarked)
1 to 25%

Form field: reported inhibition at 20 µM of `Cc1occc1-c1nnc(SCC2CCN(C(=O)OCc3ccccc3)CC2)o1`
25 to 50%

---
Form field: reported inhibition at 20 µM of `COc1ccc(N(CC(=O)N(c2ccccc2)C(C)C)S(=O)(=O)c2ccccc2C(F)(F)F)cc1`
25 to 50%

Form field: reported inhibition at 20 µM of `COc1cccc(N2CCN(C(=O)c3ccccc3SCC(=O)N3CCc4ccccc43)CC2)c1`
1 to 25%

Form field: reported inhibition at 20 µM of `CCN(C(=O)CCc1c(C)nc(-c2ccccn2)nc1O)C1CCCC1`
51 to 75%
